test system: 422866-222-R5-J1-PDC complex spheroids viability; assay: Anticancer human tumor 422866-222-R5-J1-PDC patient-derived pancreatic adenocarcinoma cell line growth inhibition [RAS]; conditions: second compound 0.0316 µM; first compound 10 µM; hits give low values;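 also: spheroids exposed to compounds for 7 days; 100% = DMSO vehicle control viability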
Field: viability, T/C. Provide a value for each of the compounds that follow.
Answers are plain numbers, in %.

The examples below pair each entry with its known result.
| COMPOUND | viability, T/C, % |
| --- | --- |
| CC(C)NCC(C(=O)N1CCN(c2ncnc3c2C(C)CC3O)CC1)c1ccc(Cl)cc1 (stereo not drawn) + C#Cc1c(F)ccc2cc(O)cc(-c3ncc4c(N5CC6CCC(C5)N6)nc(OCC56CCCN5CC(F)C6)nc4c3F)c12 | 121 |
| CC(=O)OC12COC1CC(O)C1(C)C(=O)C(O)C3=C(C)C(OC(=O)C(O)C(NC(=O)OC(C)(C)C)c4ccccc4)CC(O)(C(OC(=O)c4ccccc4)C21)C3(C)C (stereo not drawn) + C=CC(=O)N1CCN(c2nc(OCC3CCCN3C)nc3c(F)c(-c4nc(N)cc(C)c4C(F)(F)F)c(Cl)cc23)C(C)C1 | 20.9 |

Read the next record carefully.
Lookup result for CCC(CC)c1cc(NC2CCC(N)C2)n2nccc2n1 (stereo not drawn) + C=CC(=O)N1CCN(c2nc(OCC3CCCN3C)nc3c(F)c(-c4nc(N)cc(C)c4C(F)(F)F)c(Cl)cc23)C(C)C1 ; measured viability, T/C: 31.5

Data origin: PubChem BioAssay AID2060901
